IC50 reference
System: acetylated tubulin (Lys40) in HeLa cells
Assay: Acetylated α-tubulin measurement in vitro (immunocytochemistry)
Format: cell-based
Details: Homo sapiens, 6 hours incubation, acetylated tubulin (Lys40) by immunocytochemistry, read-out: IC50 (Tubulin deacetylation)
parameter measured: IC50

> print(dat)
                                    molecule           result
 1  COc1cnc2nc(C)nc(SCC(=O)c3ccc(CN(C)C(=O)CO)s3)c2c1    100 to 500 nM
 2  O=C(CSc1nc(C(F)(F)F)nc2ncccc12)c1ccc(CNC(=O)C2CC2(F)F)s1 (stereo not shown)         ≤ 100 nM
 3  Cc1nc(SCC(=O)c2ccc(CNC(=O)CO)s2)c2c(F)c(Cl)ccc2n1    100 to 500 nM
 4  COc1cnc2nc(C(F)F)nc(SCC(=O)c3ccc(CNC(=O)CO)s3)c2c1         ≤ 100 nM
 5  COc1ccc2nc(C)nc(SCC(=O)c3ccc(CNC(=O)C4CC4)s3)c2c1  1000 to 3330 nM
 6  CCS(=O)(=O)NCc1ccc(C(=O)CSc2nc(C(F)(F)F)nc3ncccc23)s1    100 to 500 nM
 7  O=C(CO)NCc1ccc(C(=O)CSc2nc3ncc(C(F)(F)F)cc3o2)s1    100 to 500 nM
 8  Cc1nc(SCC(=O)c2ccc(CNC(=O)CO)s2)c2ccccc2n1    100 to 500 nM
 9  COCCn1cc2c(SCC(=O)c3ccc(CNC(=O)CO)s3)nc(C(F)(F)F)nc2n1         ≤ 100 nM
10  COc1ccc2nc(C)nc(SCC(=O)c3ccc(CNC(=O)CO)s3)c2c1    100 to 500 nM
11  Cc1nc(SCC(=O)c2ccc(CNC(=O)C(C)(C)C)s2)c2ncccc2n1  1000 to 3330 nM
12  O=C(CSc1nc(C(F)(F)F)nc2ncccc12)c1ccc(CNS(=O)(=O)C2CC2)s1    100 to 500 nM
13  Cc1nc(SCC(=O)c2ccc(CNC(=O)CO)s2)c2cc(N3CCCOCC3)ccc2n1         ≤ 100 nM
14  Cc1nc(SCC(=O)c2ccc(CNC(=O)CO)s2)c2cc(C(F)(F)F)cnc2n1         ≤ 100 nM
15  CC(C)(C)C(=O)NCc1ccc(C(=O)CSc2nc(C(F)(F)F)nc3ccccc23)s1   500 to 1000 nM
16  COc1cnc2nc(C)nc(SCC(=O)c3ccc(CNC(=O)CO)s3)c2c1    100 to 500 nM
17  COc1ccc2nc(C(F)F)nc(SCC(=O)c3ccc(CNC(=O)CO)s3)c2c1    100 to 500 nM
18  COCCn1ncc2c(SCC(=O)c3ccc(CNC(=O)CO)s3)nc(C(F)(F)F)nc21         ≤ 100 nM
19  O=C(CO)NCc1ccc(C(=O)CSc2nc(C(F)(F)F)nc3c2cnn3C2CC2)s1    100 to 500 nM
20  Cn1cc2c(SCC(=O)c3ccc(CNC(=O)C(O)C(F)(F)F)s3)nc(C(F)(F)F)nc2n1 (stereo not shown)    100 to 500 nM
21  Cn1cc2c(SCC(=O)c3ccc(CNC(=O)C(C)(C)O)s3)nc(C(F)(F)F)nc2n1    100 to 500 nM
22  O=C(CO)NCc1ccc(C(=O)CSc2nc3nc(C(F)(F)F)ccc3o2)s1         ≤ 100 nM
23  Cn1ncc2c(SCC(=O)c3ncc(CNC(=O)C(C)(C)C)s3)ncnc21  1000 to 3330 nM
24  O=C(CSc1nc2nc(C(F)(F)F)ccc2o1)c1ccc(CNC(=O)C2(O)CC2)s1         ≤ 100 nM
25  CNc1cc(C(F)(F)F)cc2c(SCC(=O)c3ccc(CNC(=O)CO)s3)nc(C)nc12  1000 to 3330 nM
26  Cc1nc(SCC(=O)c2ccc(CNC(=O)C(C)(C)C)s2)c2cccnc2n1    100 to 500 nM
27  CCOc1ccc2nc(C)nc(SCC(=O)c3ccc(CNC(=O)CO)s3)c2c1         ≤ 100 nM
28  CN(Cc1ccc(C(=O)CSc2nc(C(F)(F)F)nc3ncccc23)s1)C(=O)CO    100 to 500 nM
29  COc1cc2c(SCC(=O)c3ccc(CN(C)C(=O)CO)s3)nc(C(F)(F)F)nc2cn1         ≤ 100 nM
30  Cn1ncc2c(SCC(=O)c3ccc(CNC(=O)C(C)(C)C)s3)nc(C(F)F)nc21  1000 to 3330 nM
31  Cn1cc2c(SCC(=O)c3ccc(CNC(=O)C4CC4(F)F)s3)nc(C(F)(F)F)nc2n1 (stereo not shown)    100 to 500 nM
32  Cc1nc(SCC(=O)c2ccc(CNC(=O)CO)s2)c2cc(C(F)(F)F)cc(N(C)C)c2n1    100 to 500 nM
33  COc1ccc2nc(C(F)(F)F)nc(SCC(=O)c3ccc(CNC(=O)CO)s3)c2c1    100 to 500 nM
34  COc1ccc2nc(C)nc(SCC(=O)c3ccc(CCN4CCC(O)C4=O)s3)c2c1 (stereo not shown)   500 to 1000 nM
